The reported numbers originate from patent US20240010639A1.

Assay name: Toxicokinetic evaluation of 14-day repeated intragastric administration to SD rats
Type: in vivo
Experimental parameters: both sexes, SD, rat, plasma, po, 15 mg/kg, repeated intragastric 15 mg/kg, Day 14, read-out: Residence time MRT
Protocol: With SD rats as test animals, the plasma concentrations of the test compounds and the concentrations of the original forms of the compounds in the administration solutions were measured by LC/MS/MS at different time points after intragastric administration. The toxicokinetic performance of the compound disclosed herein was studied in SD rats and its toxicokinetic profile was evaluated. […]
Property label: MRT (h)
Response body: numeric value in h, unit text excluded.

Request: Answer with the recorded MRT for the molecule listed here: `Cc1ccc(F)c([C@H](C)Nc2nc(=O)n(C3CCOCC3)c(=O)[nH]2)c1`
Response: 6.4
